# targetOrSystem: T1, murine NRP1 (mouse, UniProt P97333)
# T1 chain: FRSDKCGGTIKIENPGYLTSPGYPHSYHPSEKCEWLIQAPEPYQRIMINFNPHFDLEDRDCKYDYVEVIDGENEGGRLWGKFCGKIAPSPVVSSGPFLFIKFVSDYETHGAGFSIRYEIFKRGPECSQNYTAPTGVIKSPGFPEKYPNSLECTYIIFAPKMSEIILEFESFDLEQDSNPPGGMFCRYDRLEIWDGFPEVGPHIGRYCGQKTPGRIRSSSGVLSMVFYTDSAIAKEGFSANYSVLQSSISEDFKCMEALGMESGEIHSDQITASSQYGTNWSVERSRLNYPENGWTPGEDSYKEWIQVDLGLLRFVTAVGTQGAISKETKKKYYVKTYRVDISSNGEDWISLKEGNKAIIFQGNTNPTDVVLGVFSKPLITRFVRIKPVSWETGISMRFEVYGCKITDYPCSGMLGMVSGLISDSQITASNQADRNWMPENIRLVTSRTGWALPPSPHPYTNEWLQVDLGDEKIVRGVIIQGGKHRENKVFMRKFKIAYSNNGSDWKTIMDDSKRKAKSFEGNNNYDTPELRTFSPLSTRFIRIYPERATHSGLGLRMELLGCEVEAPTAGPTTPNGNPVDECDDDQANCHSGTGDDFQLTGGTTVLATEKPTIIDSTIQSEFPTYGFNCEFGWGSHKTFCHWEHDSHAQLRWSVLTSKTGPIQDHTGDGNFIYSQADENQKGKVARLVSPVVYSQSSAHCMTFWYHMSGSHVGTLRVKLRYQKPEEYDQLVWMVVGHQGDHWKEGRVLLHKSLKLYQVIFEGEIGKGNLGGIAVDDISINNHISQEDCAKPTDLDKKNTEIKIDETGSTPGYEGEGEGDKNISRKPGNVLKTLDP
# measurementNotes: competition phage ELISA
readoutLabel: IC50 (nM)

INSERT INTO results (binder, obsvalue) VALUES
  ('YW107.4.18 (antibody, V domains shown) VH: EVQLVESGGGLVQPGGSLRLSCAASGFTFSSYAMSWVRQAPGKGLEWVSQISPAGGYTNYADSVKGRFTISADTSKNTAYLQMNSLRAEDTAVYYCARELPYYRMSKVMDVWGQGTLVTVSS VL: DIQMTQSPSSLSASVGDRVTITCRASQYFSSYLAWYQQKPGKAPKLLIYGASTHESGVPSRFSGSGSGTDFTLTISSLQPEDFATYYCQQYIRSPLTFGQGTKVEIKR', 1.1),
  ('YW107.4.33b (antibody, V domains shown) VH: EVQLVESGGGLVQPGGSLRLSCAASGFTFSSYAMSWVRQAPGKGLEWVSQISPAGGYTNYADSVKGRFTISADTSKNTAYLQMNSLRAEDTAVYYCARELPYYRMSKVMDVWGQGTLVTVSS VL: DIQMTQSPSSLSASVGDRVTITCRASQYIHSYLAWYQQKPGKAPKLLIYGASRRASGVPSRFSGSGSGTDFTLTISSLQPEDFATYYCQQYYGTPHTFGQGTKVEIKR', 7.8),
  ('YW107.4.59 (antibody, V domains shown) VH: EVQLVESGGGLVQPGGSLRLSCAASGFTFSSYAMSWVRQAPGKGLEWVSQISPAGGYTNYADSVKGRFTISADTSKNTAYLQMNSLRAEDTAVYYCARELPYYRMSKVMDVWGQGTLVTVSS VL: DIQMTQSPSSLSASVGDRVTITCRASQRIHSYLAWYQQKPGKAPKLLIYGASSRASGVPSRFSGSGSGTDFTLTISSLQPEDFATYYCQQYYISPLTFGQGTKVEIKR', 26);
